Tested on: LNCaP
Assay: MTT assay
Assay type: cell-based, human
Settings: LNCaP, 24 h
measure.name: IC50 (µM)
// units = µM; emit number, no label

Data request: Find the measured IC50 of N.N.[Cl][Pt][Cl] [cisplatin] and report it.
Data returned: 26.1

----------
Tested on: Caco-2
Assay: MTT assay
Type: cell-based, human
Conditions: Homo sapiens, Caco-2, 24 h
The following molecules are listed with their measured IC50 values.
// units = µM; emit number, no label

# molecule, target.system, IC50 (µM)
rows = [
    ("COc1cc([C@@H]2c3cc4c(cc3[C@@H](O[C@@H]3O[C@@H]5CO[C@@H](C)O[C@H]5[C@H](O)[C@H]3O)[C@H]3COC(=O)[C@H]23)OCO4)cc(OC)c1O [etoposide]", "Caco-2", 76.3),
]

Data request: Find the measured IC50 of O=Cc1ccc(OCc2cn(-c3ccc(Cl)c(Cl)c3)nn2)cc1O and report it.
Data returned: 31.7

----------
Tested on: LNCaP
Experiment: MTT assay
Type: cell-based, human
Settings: LNCaP, 72 h
Protocol: Human cancer cell lines (MDA-MB-231, LNCaP, Caco-2) and a human healthy cell line (HEK-293) were obtained from the European Collection of Cell Cultures. […] MDA-MB-231, LNCaP, Caco-2 and HEK-293 cells (5x10^3 per well) seeded in 96-well plates to assess cell viability by the 3-[4,5-dimethylthiazol-2-yl]-2,5-diphenyltetrazolium bromide (MTT) assay for 24 h at 37°C. […] The absorbance (A) was measured spectrophotometrically at 540 nm by a Microplate Reader (SpectraMax i3x). […] calculated from graph. […]
measure.name: IC50

Data request: Find the measured IC50 of N.N.[Cl][Pt][Cl] [cisplatin] and report it.
Data returned: 10.3 µM
